Please respond with reported GI50 for every item in the list.
- Tested on: HeLa
- ASSAY_TEXT: Antiproliferative activity against human HeLa cells after 72 hrs by MTT assay
- Type: functional
Give bare numbers, in µM.

Sample records with GI50:
INSERT INTO assay_data (structure_as_smiles, assay_readout, meas_value) VALUES
  ('O=C(CCC12CC3CC(CC(C3)C1)C2)N1CCOCCOCCOCCOCCOCC1', 'GI50', 28),
  ('C1COCC23CC4CC(C2)CC(COCCOCC25CC6CC(CC(CO1)(C6)O2)C5)(C4)O3', 'GI50', 17);

For each of the compounds below, note its GI50.
1. C1COCCOCCN(CCC23CC4CC(CC(C4)C2)C3)CCOCCOCCO1
2. C(CN1CCOCCOCCOCCOCCOCC1)CC12CC3CC(CC(C3)C1)C2
3. C1COCCN(CCC23CC4CC(CC(C4)C2)C3)CCOCCOCCN(CCC23CC4CC(CC(C4)C2)C3)CCO1

1. 16
2. 14
3. 2.3

====

- System: MCF7
- ASSAY_TEXT: Antiproliferative activity against human MCF7 cells after 72 hrs by MTT assay
- Type: functional
- STATED_CONDITIONS: MCF7, 72 h
ASSAY_READOUT: GI50 (µM)
Give bare numbers, in µM.

Sample records with GI50:
INSERT INTO measurements (structure_as_smiles, meas_value) VALUES
  ('C1COCCOCCN(CCC23CC4CC(CC(C4)C2)C3)CCOCCOCCO1', 8),
  ('C(CN1CCOCCOCCN(CCCC23CC4CC(CC(C4)C2)C3)CCOCCOCC1)CC12CC3CC(CC(C3)C1)C2', 2);

For each of the compounds below, note its GI50.
1. C1COCCN(CCC23CC4CC(CC(C4)C2)C3)CCOCCOCCN(CCC23CC4CC(CC(C4)C2)C3)CCO1
2. O=C(CC12CC3CC(CC(C3)C1)C2)N1CCOCCOCCN(C(=O)CC23CC4CC(CC(C4)C2)C3)CCOCCOCC1

[4, 5]

====

- System: HeLa
- ASSAY_TEXT: Antiproliferative activity against human HeLa cells after 72 hrs by MTT assay
- Assay type: functional
Please respond with reported GI50 for every item in the list.

For each of the compounds below, note its GI50.
1. O=C(CC12CC3CC(CC(C3)C1)C2)N1CCOCCOCCOCCOCCOCC1
2. C1COCCOCC23CC4CC(C2)CC(COCCOCCO1)(C4)O3
3. C1COCCOCCNCCOCCOCCN1

> 100 µM
> 100 µM
> 100 µM

Reference source: ChEMBL document CHEMBL1811780
